Values compiled from PubChem BioAssay.

assay: modulators of S6 phosphorylation in cells, primary screen, cell-based, A549, cytoblot, luminescence, serum-stimulated (AID 1158); conditions: A549 phospho-S6 cytoblot, 5 h, higher = more signal;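 further: serum-stimulated A549 lung adenocarcinoma cells; signal is phosphorylated S6 detected by cytoblot immunostaining with HRP secondary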
z-score vs -0.2: at or above is class 1, below is class 0.

A selection of reference data follows.
{"columns": ["Compound", "Assigned class"],
 "data": [
  ["C=C(CCCC)/C(=C/C[C@@H](OC(=O)c1ccncc1)c1ccc(OCCO)cc1)c1cc(C(=O)OC)ccc1OC", "class 1"],
  ["O=C1C[C@@](C(=O)NCC(F)(F)F)(c2ccc([N+](=O)[O-])cc2)[C@@H](c2ccc(CO)cc2I)N1C1CCCCC1", "class 0"],
  ["Cc1ccc(S[C@]2(C(=O)NCCCN(C)C)CC(=O)N(Cc3ccccc3C(F)(F)F)[C@@H]2c2ccc(CO)cc2)cc1", "class 1"],
  ["CC1(C)C2C=C(C(O)C3C=CC4C(=O)NC(=O)C4N3Nc3ccc(Cl)cc3Cl)C[C@@H]1C2 (some centres not stated)", "class 0"],
  ["CC(C)N1C(=O)C[C@@](C(=O)NCC(F)(F)F)(c2ccc([N+](=O)[O-])cc2)[C@H]1c1ccc(CO)cc1", "class 1"]
]}

Q) Exam item: decide whether the reported z-score for `O=C1C[C@@](C(=O)NC2CC2)(c2ccc([N+](=O)[O-])cc2)[C@@H](c2ccc(CO)cc2I)N1C1CCCCC1` is at least -0.2.
A) class 0

Q) Same question for C=CCC(OC(C)=O)[C@@H]1[C@@H](N(Cc2ccc(-c3ccccc3)cc2)C(=O)Cc2ccc(OC)cc2)c2cc(OCCCO)ccc2N1C(=O)Cc1ccc2ccccc2c1 (some centres not stated) please.
A) class 1

* * *

experiment: binders of probe aFST on microarray, primary screen, stem cell growth factor project, biochemical, small-molecule microarray, fluorescence 635/667 (AID 1086); settings: higher = more signal;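 further: score merges 667 nm fluorescence with signal-to-noise of each printed compound spot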
composite z-score vs 0.5: at or above is Met, below is Not met.

{"columns": ["Compound", "Assigned class"],
 "data": [
  ["CC(C)C[C@@H]1NC(=O)[C@H](C(C)C)NC(=O)[C@@]23C(=O)N[C@@H](Cc4ccccc4)C2[C@H](C)[C@@]2(C)O[C@H]2C3/C=C/CC/C=C/CNC1=O (some centres undefined)", "Not met"],
  ["COc1ccc(CCNC(=O)[C@@]2(Sc3ccc(C)cc3)CC(=O)N(C3Cc4ccccc4C3)[C@@H]2c2ccc(CO)cc2I)cc1", "Not met"],
  ["CC(C)N1C(=O)C[C@@](C(=O)NCC(F)(F)F)(c2ccc([N+](=O)[O-])cc2)[C@H]1c1ccc(CO)cc1", "Not met"],
  ["COC(=O)C[C@H]1O[C@]2(C(=O)N(C)c3ccccc32)[C@@H](C)[C@@H]1[Si](C)(C)F", "Not met"]
]}

Q) Exam item: decide whether the reported composite z-score for `COCCOC(=O)N1C(=O)[C@@]2(c3cc(C#CC4(O)CCCCCC4)ccc31)[C@H](c1ccc(OCCO)cc1)N1[C@H](c3ccccc3)[C@H](c3ccccc3)OC(=O)[C@H]1[C@@H]2C(=O)N1CCN(c2ncccn2)CC1` is at least 0.5.
A) Met

Q) Same question for C=CCC(OC(C)=O)[C@@H]1[C@@H](N(Cc2ccc(-c3ccccc3)cc2)C(=O)c2ccc(-c3ccccc3)cc2)c2cc(OCCCO)ccc2N1C(=O)Cc1ccc2ccccc2c1 (some centres undefined) please.
A) Not met

Q) Same question for `O=C1N(Cc2ccccc2)c2ccccc2[C@@H]2OC(c3ccc(OCCCO)cc3)=N[C@]12CCS(=O)(=O)c1ccccc1` please.
A) Met

Q) Same question for `COC(=O)[C@@]1(Cc2ccc(F)cc2)[C@H]2c3cc(C(=O)N(C)C)n(Cc4ccccc4)c3C[C@H]2CN1C(=O)c1ccccc1` please.
A) Met

Q) Same question for `COCCCNC(=O)[C@@H]1c2ccccc2C(=O)N(Cc2ccccc2Cl)[C@H]1c1ccc(CO)cc1` please.
A) Not met

Q) Same question for `[N-]=[N+]=Nc1ccccc1[C@@H]1OC(c2ccc(OCCCO)cc2)=N[C@]1(Cc1ccccc1)C(=O)N1CCOCC1` please.
A) Met

Q) Same question for `CCCC[C@H]1OB(O)C[C@H]2C1=C(COC)C[C@H]1C(=O)N(C)C(=O)[C@H]12` please.
A) Not met

Q) Same question for `[N-]=[N+]=NCc1ccccc1C[C@]1(C(=O)N2CCCCC2)N=C(c2ccc(OCCCO)cc2)O[C@H]1c1ccccc1N=[N+]=[N-]` please.
A) Met

Q) Same question for `C=C(COC)C(=O)CC[C@@H](OC(C)=O)c1ccc(CO)o1` please.
A) Not met

* * *

target: NADPH oxidase 5 (Homo sapiens) (UniProt Q96PH1); assay: NOX5-dependent H2O2 signal modulators, primary screen, NOX inhibitor project, cell-based, HEK293-NOX5, Amplex Red fluorescence (AID 1161); conditions: HEK293-NOX5, ionomycin, 45 min, higher = more signal
Sequence (Q96PH1 whole entry, looked up): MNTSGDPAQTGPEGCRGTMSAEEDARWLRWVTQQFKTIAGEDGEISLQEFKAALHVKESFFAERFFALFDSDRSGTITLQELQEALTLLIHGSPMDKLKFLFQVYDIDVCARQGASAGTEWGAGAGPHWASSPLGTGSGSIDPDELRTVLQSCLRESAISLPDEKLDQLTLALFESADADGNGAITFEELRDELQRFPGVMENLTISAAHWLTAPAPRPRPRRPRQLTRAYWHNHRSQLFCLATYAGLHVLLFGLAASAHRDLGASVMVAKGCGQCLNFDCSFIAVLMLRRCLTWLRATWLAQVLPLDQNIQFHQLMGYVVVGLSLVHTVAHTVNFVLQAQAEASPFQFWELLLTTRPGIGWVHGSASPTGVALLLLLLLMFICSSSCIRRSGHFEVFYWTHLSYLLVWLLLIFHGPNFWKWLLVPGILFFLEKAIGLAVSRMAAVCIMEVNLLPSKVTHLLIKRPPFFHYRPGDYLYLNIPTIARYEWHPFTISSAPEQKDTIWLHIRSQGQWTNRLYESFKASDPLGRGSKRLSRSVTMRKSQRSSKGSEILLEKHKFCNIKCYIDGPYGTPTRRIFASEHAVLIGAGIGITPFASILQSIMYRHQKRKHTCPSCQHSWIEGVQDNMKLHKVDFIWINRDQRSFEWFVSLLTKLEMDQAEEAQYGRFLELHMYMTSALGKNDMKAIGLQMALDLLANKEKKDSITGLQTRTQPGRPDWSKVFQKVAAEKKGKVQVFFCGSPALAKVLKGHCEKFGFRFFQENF
Property label: z-score
No unit in the answer, only the number.

{"columns": ["Compound", "z-score"],
 "data": [
  ["CC#CC(=O)Oc1ccccc1C=CC(=O)OCC", 1.8]
]}

Field: next compound
Q) Would you kindly share the measured z-score for CC(CO)N1C(=O)[C@@H]2C3C(=O)OCCC/C=C\[C@H]3OC23C=CCN(C(C)(C)C)C(=O)[C@@H]13 (stereo not given in full) ?
A) 0.886

* * *

experiment: MM1S cell viability effects, profiling panel, calcein-AM fluorescence, 48 h, basal (AID 1165); details: higher = more signal;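 further: viability of MM1S multiple myeloma cells under basal unstimulated conditions; test concentration not given here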
Reported z-score values for the following compounds.
No unit in the answer, only the number.

{"columns": ["Compound", "z-score"],
 "data": [
  ["CCC[C@@H]1C[C@@]1(CCC)[C@@H](NS(=O)(=O)c1cccc2cccnc12)c1ccc(Cl)cc1", 0.0781],
  ["C=CCOC(=O)[C@H]1[C@@H]2C(=O)O[C@@H](c3ccccc3)[C@@H](c3ccccc3)N2[C@@H](c2ccc(OCCOC(=O)[C@@H]3C[C@@H]4C(=O)N[C@@H](CCCCNC(C)=O)C(=O)N4[C@@H]3c3ccc(O)cc3)cc2)[C@]12C(=O)Nc1ccccc12", -0.0774],
  ["CCOC(=O)C1=CC[C@@H](c2ccccc2)N(S(=O)(=O)c2ccc(C)cc2)[C@H]1c1ccccc1C", -0.247]
]}

Q) Would you kindly share the measured z-score for COc1ccc(C(O)C2C=CC3C(=O)N(Cc4ccccc4)C(=O)C3N2n2cnnc2)cc1OCc1ccccc1 (stereo not given) ?
A) 0.195

* * *

Reported composite z-score values for the following molecules.
biological target: Fibroblast growth factor 10 (Homo sapiens); experiment: FGF10 binders on small-molecule microarrays, primary screen, biochemical, small-molecule microarray, 635 nm fluorescence (AID 1102); conditions: FGF10 binding, fluorescence 635 nm, higher = more signal
No unit in the answer, only the number.

Past entries and their recorded results:
{"columns": ["Molecule", "composite z-score"],
 "data": [
  ["N#Cc1ccc(NN2C(C(O)C(c3ccccc3)c3ccccc3)C=CC3C(=O)N(c4ccccc4)C(=O)C32)cc1 (stereo not given)", 1.2],
  ["CCCC[C@H]1OB(O)C[C@H]2C1=C(COC)Cn1c(=O)n(-c3ccccc3)c(=O)n12", 0.516],
  ["O=C(NCCO)C1=C[C@H](Oc2ccccc2I)[C@@H](O)[C@H](N(Cc2ccco2)C(=O)Cc2ccccc2)C1", 0.556],
  ["COCCCNC(=O)[C@@H]1c2ccccc2C(=O)N(Cc2ccccc2Cl)[C@H]1c1ccc(CO)cc1", 0.629],
  ["O=C1O[C@H](c2ccccc2)[C@H](c2ccccc2)N2[C@H]1[C@@H](C(=O)N1CCCCCCC1)[C@]1(C(=O)Nc3ccc(C#CCCO)cc31)[C@H]2c1ccccc1OCCO", 1.76]
]}

Q) Would you kindly share the measured composite z-score for `CCOC(=O)C1=CC[C@@H](c2ccccc2)N(S(=O)(=O)c2ccc(C)cc2)[C@H]1c1ccccc1C` ?
A) 0.607

Q) Same question for `CC(C)C[C@@H]1NC(=O)[C@@H]2C[C@H](C(=O)NCc3ccc(F)cc3)[C@H](c3cccc(OCCO)c3)N2C1=O` please.
A) 1.2

Q) Same question for `C=CCNC(=O)[C@H]1[C@@H]2C(=O)O[C@@H](c3ccccc3)[C@@H](c3ccccc3)N2[C@@H](c2ccccc2OCCO)[C@]12C(=O)Nc1ccc(C#CCC(C(=O)OC)C(=O)OC)cc12` please.
A) 1.26

Q) Same question for `CN(C)CCCC[C@@H]1NC(=O)[C@@H]2C[C@H](C(=O)NCCCCCCN)[C@H](c3cccc(OCCO)c3)N2C1=O` please.
A) 0.894

Q) Same question for `C=CCOC(=O)[C@H]1[C@@H]2C(=O)O[C@@H](c3ccccc3)[C@@H](c3ccccc3)N2[C@@H](c2ccc(OCCOC(=O)[C@H]3C[C@H]4C(=O)N[C@@H](CCCCN(C)C)C(=O)N4[C@H]3c3ccc(O)cc3)cc2)[C@]12C(=O)Nc1ccc(I)cc12` please.
A) 1.31

Q) Same question for C=CCC(OC(C)=O)[C@@H]1[C@@H](N(Cc2ccc(-c3ccccc3)cc2)C(=O)Cc2ccc(OC)cc2)c2cc(OCCCO)ccc2N1C(=O)Cc1ccc2ccccc2c1 (stereo not given in full) please.
A) -0.437

Q) Same question for `CC(C)C(=C=CC[C@H](O)c1ccc(OCCO)cc1)CCO` please.
A) 0.835

Q) Same question for `COc1cc2c(cc1OC)CN(C(=O)[C@@H]1[C@H]3C(=O)O[C@H](c4ccccc4)[C@H](c4ccccc4)N3[C@H](c3ccc(O)cc3)[C@@]13C(=O)Nc1ccccc13)CC2` please.
A) 0.397

Q) Same question for `C=CCNC(=O)[C@@H]1[C@H]2C(=O)O[C@H](c3ccccc3)[C@H](c3ccccc3)N2[C@H](c2ccc(OCCO)cc2)[C@@]12C(=O)Nc1ccc(C#CCC(C(=O)OC)C(=O)OC)cc12` please.
A) 1.23

Q) Same question for `COC(=O)[C@H](Cc1ccccc1)N[C@@H](/C=C/C1CC1)[C@H](O)Cc1ccccc1` please.
A) -0.865

Q) Same question for `[N-]=[N+]=Nc1ccccc1[C@@H]1OC(c2ccc(OCCCO)cc2)=N[C@]1(CCS(=O)(=O)c1ccccc1)C(N)=O` please.
A) 1.09

Q) Same question for `C=C(CCCC)/C(=C/C[C@H](OC(=O)c1ccncc1)c1ccccc1OCCO)c1cnc2ccccc2c1` please.
A) 1.08

Q) Same question for Cc1ccccc1C(O)C1C=CC2C(=O)N(c3ccccc3)C(=O)C2N1Nc1ccc(C(C)C)cc1 (stereo not given) please.
A) 0.971

Q) Same question for `C=CC[C@@]12N=C(c3ccc(OCCCO)cc3)O[C@@H]1c1ccccc1N(C)C2=O` please.
A) 1.38

Q) Same question for O=C1C2C=CC(C(O)c3cccc4ccccc34)N(Nc3ccccc3F)C2C(=O)N1c1ccccc1 (stereo not given) please.
A) 0.606

Q) Same question for `COC(=O)C(CC#Cc1ccc2c(c1)[C@]1(C(=O)N2)[C@H](c2ccc(OCCO)cc2)N2[C@H](c3ccccc3)[C@H](c3ccccc3)OC(=O)[C@H]2[C@@H]1C(=O)Nc1nc2ccccc2s1)C(=O)OC` please.
A) 1.03

Q) Same question for `CCCC[C@H]1OB(O)C[C@H]2C1=C(COC)C[C@H]1C(=O)N(C)C(=O)[C@H]12` please.
A) 0.486

Q) Same question for CC1CC/C=C\[C@H]2OC34C=CCN(C(C)(C)C)C(=O)[C@H]3N(C(C)CO)C(=O)[C@@H]4C2C(=O)O1 (stereo not given in full) please.
A) -0.443

Q) Same question for C[C@H]1C2[C@H](Cc3ccccc3)NC(=O)[C@]23C(=O)N[C@H](Cc2ccccc2)C(=O)N2CCC[C@H]2C(=O)NC/C=C\C/C=C/C3[C@@H]2O[C@]12C (stereo not given in full) please.
A) 0.428

Q) Same question for `C=CCOC(=O)[C@H]1[C@@H]2C(=O)O[C@@H](c3ccccc3)[C@@H](c3ccccc3)N2[C@@H](c2ccc(OCCOC(=O)[C@H]3C[C@H]4C(=O)N[C@@H](CCCC[N+](C)(C)C)C(=O)N4[C@H]3c3ccc(O)cc3)cc2)[C@]12C(=O)Nc1ccc(I)cc12` please.
A) 0.332
